Data origin, for the record: the kinase profiling compilation of Christmann-Franck et al. (2016)

# TARGET_OR_SYSTEM: RPS6KA2 KD2 (human) (UniProt Q15349)
# Sequence (Q15349 whole entry, looked up): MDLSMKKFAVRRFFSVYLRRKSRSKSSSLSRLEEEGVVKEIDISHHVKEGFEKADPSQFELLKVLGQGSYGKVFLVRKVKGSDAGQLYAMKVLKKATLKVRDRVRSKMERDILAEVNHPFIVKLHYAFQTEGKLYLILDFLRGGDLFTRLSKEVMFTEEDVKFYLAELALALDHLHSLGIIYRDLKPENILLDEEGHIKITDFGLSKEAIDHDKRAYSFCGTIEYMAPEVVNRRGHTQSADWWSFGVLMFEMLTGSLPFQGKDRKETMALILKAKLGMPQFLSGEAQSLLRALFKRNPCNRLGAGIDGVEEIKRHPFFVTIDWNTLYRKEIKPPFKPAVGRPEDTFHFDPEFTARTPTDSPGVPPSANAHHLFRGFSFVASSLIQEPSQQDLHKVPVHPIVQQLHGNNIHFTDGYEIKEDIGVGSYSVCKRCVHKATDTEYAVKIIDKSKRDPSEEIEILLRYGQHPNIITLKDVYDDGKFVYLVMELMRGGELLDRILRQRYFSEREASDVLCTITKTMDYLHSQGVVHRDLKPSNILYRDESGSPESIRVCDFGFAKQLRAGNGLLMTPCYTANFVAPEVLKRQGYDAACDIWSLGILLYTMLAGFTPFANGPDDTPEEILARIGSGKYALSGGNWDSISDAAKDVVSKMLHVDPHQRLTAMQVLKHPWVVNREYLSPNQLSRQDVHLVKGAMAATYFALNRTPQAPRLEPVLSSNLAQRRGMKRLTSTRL
# ASSAY_REMARKS: KINOMEscan competition binding
# SETTINGS: compound 10.0 µM
EXPERIMENTAL_ENDPOINT: kinase still bound, per cent of control (%)

INSERT INTO results (compound, value_observed) VALUES
  ('O=C1Nc2ccc(I)cc2/C1=C/c1cc(Br)c(O)c(Br)c1', 45),
  ('CN(C)C/C=C/C(=O)Nc1cccc(Nc2ncc3c(n2)N(C)c2ccccc2C(=O)N3C)c1', 21),
  ('C=CC(=O)Nc1cccc(Oc2nc(Nc3ccc(N4CCN(C)CC4)cc3OC)ncc2Cl)c1', 28),
  ('COc1cc(C(=O)NC2CCN(C)CC2)ccc1Nc1ncc2c(n1)N(C1CCCC1)CCC(=O)N2C(C)C', 100),
  ('COc1cc(C(=O)NC2CCN(C)CC2)ccc1Nc1ncc2c(n1)N(C1CCCC1)C(C)CC(=O)N2C (stereo unspecified)', 5.8),
  ('Cc1cc([C@@H](C)Nc2ccccc2C(=O)O)c2nc(N3CCOCC3)cc(=O)n2c1', 98);

----------
# TARGET_OR_SYSTEM: IGF1R (human) (UniProt P08069)
# Sequence (P08069 whole entry, looked up): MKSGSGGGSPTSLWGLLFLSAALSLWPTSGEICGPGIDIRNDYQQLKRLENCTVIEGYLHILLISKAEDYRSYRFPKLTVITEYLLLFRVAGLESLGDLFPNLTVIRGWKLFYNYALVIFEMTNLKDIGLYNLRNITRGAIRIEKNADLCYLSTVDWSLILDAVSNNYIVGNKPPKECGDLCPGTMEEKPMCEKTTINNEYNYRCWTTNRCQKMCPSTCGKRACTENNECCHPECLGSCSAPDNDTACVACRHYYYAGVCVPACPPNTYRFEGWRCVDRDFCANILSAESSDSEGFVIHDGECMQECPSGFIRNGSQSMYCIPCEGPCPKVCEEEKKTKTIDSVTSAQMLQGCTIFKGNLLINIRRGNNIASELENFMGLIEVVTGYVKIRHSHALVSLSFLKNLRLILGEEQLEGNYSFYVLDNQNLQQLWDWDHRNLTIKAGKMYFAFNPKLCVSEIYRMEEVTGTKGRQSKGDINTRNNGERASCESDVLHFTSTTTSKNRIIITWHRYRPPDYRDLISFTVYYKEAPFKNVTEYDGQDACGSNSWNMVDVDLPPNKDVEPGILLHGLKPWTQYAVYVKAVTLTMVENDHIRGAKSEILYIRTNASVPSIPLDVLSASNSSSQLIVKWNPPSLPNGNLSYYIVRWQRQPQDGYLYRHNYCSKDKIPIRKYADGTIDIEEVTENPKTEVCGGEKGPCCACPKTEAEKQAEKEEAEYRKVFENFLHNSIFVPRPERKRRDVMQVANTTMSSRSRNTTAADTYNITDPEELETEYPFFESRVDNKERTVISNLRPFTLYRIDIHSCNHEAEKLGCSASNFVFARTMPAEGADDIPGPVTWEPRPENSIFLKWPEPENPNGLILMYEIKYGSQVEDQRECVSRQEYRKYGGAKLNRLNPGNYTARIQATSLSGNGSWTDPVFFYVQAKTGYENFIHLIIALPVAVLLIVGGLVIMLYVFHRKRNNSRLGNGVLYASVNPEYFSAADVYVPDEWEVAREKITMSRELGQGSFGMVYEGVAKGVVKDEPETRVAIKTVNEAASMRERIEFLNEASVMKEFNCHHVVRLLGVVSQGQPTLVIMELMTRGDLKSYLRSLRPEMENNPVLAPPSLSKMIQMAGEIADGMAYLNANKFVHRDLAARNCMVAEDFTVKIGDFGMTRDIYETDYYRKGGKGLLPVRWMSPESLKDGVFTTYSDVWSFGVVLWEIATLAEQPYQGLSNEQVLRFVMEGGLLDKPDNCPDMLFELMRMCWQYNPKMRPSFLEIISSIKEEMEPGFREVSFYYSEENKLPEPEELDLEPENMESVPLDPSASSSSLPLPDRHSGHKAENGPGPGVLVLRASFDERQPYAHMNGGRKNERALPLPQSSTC
# ASSAY_REMARKS: KINOMEscan competition binding
# SETTINGS: compound 10.0 µM
EXPERIMENTAL_ENDPOINT: kinase still bound, per cent of control (%)

INSERT INTO results (compound, experimental_endpoint, value_unit, value_observed) VALUES
  ('O=C1Nc2ccc(I)cc2/C1=C/c1cc(Br)c(O)c(Br)c1', 'kinase still bound, per cent of control', '%', 97),
  ('O=C(NC1CC1)c1cccc(-c2ccc3c(NC(=O)C4CC4)n[nH]c3c2)c1', 'kinase still bound, per cent of control', '%', 100),
  ('Cc1ccc2nc(NCCN)c3ncc(C)n3c2c1', 'kinase still bound, per cent of control', '%', 90),
  ('Cn1c(=O)n(-c2ccc(C(C)(C)C#N)cc2)c2c3cc(-c4cnc5ccccc5c4)ccc3ncc21', 'kinase still bound, per cent of control', '%', 100),
  ('COc1cc(N2CCN(C)CC2)ccc1Nc1nc(N)c(C(=O)c2c(Cl)cccc2Cl)s1', 'kinase still bound, per cent of control', '%', 72),
  ('CCCS(=O)(=O)Nc1ccc(F)c(C(=O)c2c[nH]c3ncc(-c4ccc(Cl)cc4)cc23)c1F', 'kinase still bound, per cent of control', '%', 93),
  ('C=CC(=O)Nc1cccc(Oc2nc(Nc3ccc(N4CCN(C)CC4)cc3OC)ncc2Cl)c1', 'kinase still bound, per cent of control', '%', 7.4);

----------
# TARGET_OR_SYSTEM: PRKCE (human) (UniProt Q02156)
# Sequence (Q02156 whole entry, looked up): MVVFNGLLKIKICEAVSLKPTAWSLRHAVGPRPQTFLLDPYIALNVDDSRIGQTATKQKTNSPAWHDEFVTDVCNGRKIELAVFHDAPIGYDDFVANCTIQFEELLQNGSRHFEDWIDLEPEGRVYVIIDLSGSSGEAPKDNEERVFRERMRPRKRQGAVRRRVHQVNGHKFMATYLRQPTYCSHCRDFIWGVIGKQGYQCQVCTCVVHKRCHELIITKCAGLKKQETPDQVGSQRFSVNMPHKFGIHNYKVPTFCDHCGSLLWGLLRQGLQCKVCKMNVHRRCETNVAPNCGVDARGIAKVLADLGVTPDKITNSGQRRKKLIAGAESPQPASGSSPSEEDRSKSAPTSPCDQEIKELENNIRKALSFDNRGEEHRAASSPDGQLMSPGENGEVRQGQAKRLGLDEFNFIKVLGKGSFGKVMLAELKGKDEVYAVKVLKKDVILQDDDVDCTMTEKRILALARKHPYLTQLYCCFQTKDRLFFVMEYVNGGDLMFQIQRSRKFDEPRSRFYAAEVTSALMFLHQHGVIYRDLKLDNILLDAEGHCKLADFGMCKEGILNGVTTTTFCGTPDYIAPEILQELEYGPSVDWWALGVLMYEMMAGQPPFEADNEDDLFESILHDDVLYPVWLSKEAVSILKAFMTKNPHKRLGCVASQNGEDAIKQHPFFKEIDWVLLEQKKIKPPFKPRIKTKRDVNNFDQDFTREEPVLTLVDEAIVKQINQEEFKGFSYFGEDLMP
# ASSAY_REMARKS: KINOMEscan competition binding
# SETTINGS: compound 10.0 µM
// kinase still bound, per cent of control lookup, one value per entry
EXPERIMENTAL_ENDPOINT: kinase still bound, per cent of control (%)

INSERT INTO results (compound, target_or_system, value_observed) VALUES
  ('CN(C)C/C=C/C(=O)Nc1cccc(Nc2ncc3c(n2)N(C)c2ccccc2C(=O)N3C)c1', 'PRKCE (human) (UniProt Q02156)', 67),
  ('OCCCNc1cc(-c2ccnc(Nc3cccc(Cl)c3)n2)ccn1', 'PRKCE (human) (UniProt Q02156)', 100),
  ('CCCS(=O)(=O)Nc1ccc(F)c(C(=O)c2c[nH]c3ncc(-c4ccc(Cl)cc4)cc23)c1F', 'PRKCE (human) (UniProt Q02156)', 87),
  ('Nc1ccc(-c2ccc3ncc4ccc(=O)n(-c5cccc(C(F)(F)F)c5)c4c3c2)cn1', 'PRKCE (human) (UniProt Q02156)', 69),
  ('Cc1cc([C@@H](C)Nc2ccccc2C(=O)O)c2nc(N3CCOCC3)cc(=O)n2c1', 'PRKCE (human) (UniProt Q02156)', 100),
  ('C=CC(=O)Nc1cc(NC(=O)c2ccc(C)c(NC(=O)c3ccno3)c2)cc(C(F)(F)F)c1', 'PRKCE (human) (UniProt Q02156)', 100),
  ('O=C1Nc2ccc(I)cc2/C1=C/c1cc(Br)c(O)c(Br)c1', 'PRKCE (human) (UniProt Q02156)', 100),
  ('C[C@@H](Oc1cc(-n2cnc3ccc(CN4CCN(C)CC4)cc32)sc1C(N)=O)c1ccccc1C(F)(F)F', 'PRKCE (human) (UniProt Q02156)', 3.9),
  ('CCC(=O)N1CCN(c2ccc(-n3c(=O)ccc4cnc5ccc(-c6cnc7ccccc7c6)cc5c43)cc2C(F)(F)F)CC1', 'PRKCE (human) (UniProt Q02156)', 86),
  ('CCN1CCN(Cc2ccc(Nc3ncc4c(n3)N(C)c3ccccc3C(=O)N4C)cc2C(F)(F)F)CC1', 'PRKCE (human) (UniProt Q02156)', 81),
  ('CC[C@@H]1C(=O)N(C)c2cnc(Nc3ccc(C(=O)NC4CCN(C)CC4)cc3OC)nc2N1C1CCCC1', 'PRKCE (human) (UniProt Q02156)', 100),
  ('N#Cc1c(NC(=O)c2cccc3ccccc23)sc2c1CCCC2', 'PRKCE (human) (UniProt Q02156)', 100),
  ('COc1cc(C(=O)NC2CCN(C)CC2)ccc1Nc1ncc2c(n1)N(C1CCCC1)CCC(=O)N2C(C)C', 'PRKCE (human) (UniProt Q02156)', 100),
  ('O=C(O)c1ccc(Nc2ncc3c(n2)-c2ccc(Cl)cc2C(c2c(F)cccc2F)=NC3)cc1', 'PRKCE (human) (UniProt Q02156)', 72),
  ('Cc1ccc2nc(NCCN)c3ncc(C)n3c2c1', 'PRKCE (human) (UniProt Q02156)', 100),
  ('Cc1ccc(C(=O)Nc2cccc(C(F)(F)F)c2)cc1Nc1cncc(C(N)=O)c1', 'PRKCE (human) (UniProt Q02156)', 100),
  ('COc1cc(N2CCN(C)CC2)ccc1Nc1nc(N)c(C(=O)c2c(Cl)cccc2Cl)s1', 'PRKCE (human) (UniProt Q02156)', 68),
  ('C=CC(=O)Nc1cccc(Nc2nc(N[C@H]3CC[C@H](N(C)C)CC3)nc3c2ncn3C(C)C)c1', 'PRKCE (human) (UniProt Q02156)', 52),
  ('O=C(NC1CC1)c1cccc(-c2ccc3c(NC(=O)C4CC4)n[nH]c3c2)c1', 'PRKCE (human) (UniProt Q02156)', 100);

----------
// kinase still bound, per cent of control lookup, one value per entry
# TARGET_OR_SYSTEM: CDKL2 (human)
# ASSAY_REMARKS: KINOMEscan competition binding
# SETTINGS: compound 10.0 µM
EXPERIMENTAL_ENDPOINT: kinase still bound, per cent of control (%)

INSERT INTO results (molecule, value_unit, value_observed) VALUES
  ('CCOc1cc2ncc(C#N)c(Nc3ccc(OCc4ccccn4)c(Cl)c3)c2cc1NC(=O)/C=C/CN(C)C', '%', 100),
  ('Cc1ccc(NC(=O)c2cccc(C(C)(C)C#N)c2)cc1Nc1ccc2ncn(C)c(=O)c2c1', '%', 85),
  ('C=CC(=O)Nc1cc(NC(=O)c2ccc(C)c(NC(=O)c3ccno3)c2)cc(C(F)(F)F)c1', '%', 100),
  ('COc1cc(C(=O)NC2CCN(C)CC2)ccc1Nc1ncc2c(n1)N(C1CCCC1)CCC(=O)N2C(C)C', '%', 100),
  ('CCCS(=O)(=O)Nc1ccc(F)c(C(=O)c2c[nH]c3ncc(-c4ccc(Cl)cc4)cc23)c1F', '%', 49),
  ('CCC(=O)N1CCN(c2ccc(-n3c(=O)ccc4cnc5ccc(-c6cnc7ccccc7c6)cc5c43)cc2C(F)(F)F)CC1', '%', 58),
  ('COc1cc(C(=O)NC2CCN(C)CC2)ccc1Nc1ncc2c(n1)N(C1CCCC1)C(C)CC(=O)N2C (centres undefined)', '%', 100),
  ('Nc1ccc(-c2ccc3ncc4ccc(=O)n(-c5cccc(C(F)(F)F)c5)c4c3c2)cn1', '%', 91),
  ('Cc1cc([C@@H](C)Nc2ccccc2C(=O)O)c2nc(N3CCOCC3)cc(=O)n2c1', '%', 91);

----------
# TARGET_OR_SYSTEM: MAP2K6 (human)
# ASSAY_REMARKS: KINOMEscan competition binding
# SETTINGS: compound 10.0 µM
EXPERIMENTAL_ENDPOINT: kinase still bound, per cent of control (%)

INSERT INTO measurements (molecule, experimental_endpoint, value_observed) VALUES
  ('N#Cc1c(NC(=O)c2cccc3ccccc23)sc2c1CCCC2', 'kinase still bound, per cent of control', 100),
  ('Cc1ccc(NC(=O)c2cccc(C(C)(C)C#N)c2)cc1Nc1ccc2ncn(C)c(=O)c2c1', 'kinase still bound, per cent of control', 100),
  ('Cc1ccc(C(=O)Nc2cccc(C(F)(F)F)c2)cc1Nc1cncc(C(N)=O)c1', 'kinase still bound, per cent of control', 100),
  ('Nc1ccc(-c2ccc3ncc4ccc(=O)n(-c5cccc(C(F)(F)F)c5)c4c3c2)cn1', 'kinase still bound, per cent of control', 93),
  ('COc1cc(C(=O)NC2CCN(C)CC2)ccc1Nc1ncc2c(n1)N(C1CCCC1)C(C)CC(=O)N2C (stereo unspecified)', 'kinase still bound, per cent of control', 100),
  ('O=C(NOC[C@H](O)CO)c1ccc(F)c(F)c1Nc1ccc(I)cc1F', 'kinase still bound, per cent of control', 100),
  ('C=CC(=O)Nc1cccc(Oc2nc(Nc3ccc(N4CCN(C)CC4)cc3OC)ncc2Cl)c1', 'kinase still bound, per cent of control', 100),
  ('C=CC(=O)Nc1cccc(Nc2nc(N[C@H]3CC[C@H](N(C)C)CC3)nc3c2ncn3C(C)C)c1', 'kinase still bound, per cent of control', 100),
  ('CCCS(=O)(=O)Nc1ccc(F)c(C(=O)c2c[nH]c3ncc(-c4ccc(Cl)cc4)cc23)c1F', 'kinase still bound, per cent of control', 57),
  ('Cn1c(=O)n(-c2ccc(C(C)(C)C#N)cc2)c2c3cc(-c4cnc5ccccc5c4)ccc3ncc21', 'kinase still bound, per cent of control', 100),
  ('C[C@@H](Oc1cc(-n2cnc3ccc(CN4CCN(C)CC4)cc32)sc1C(N)=O)c1ccccc1C(F)(F)F', 'kinase still bound, per cent of control', 98);
